Assay: NCI Yeast Anticancer Drug Screen. Data for the mec2-1 strain (AID 157)
Details: S. cerevisiae mec2-1 strain, at 5.0 µM (retest, dose inferred, filed as 0.5), stronger effect = higher value
About 79,000 compounds went through this panel and 15% of them were active in at least one assay; those are over-represented in the sample as a whole. Calls of active or inactive are those of the source. Cut-off read from the data, not from the text of the source: active = growth inhibition above about 70%; inactive = the rest.

{"Compound": "Cc1cc2c(cc1O)CC[C@@H]1[C@@H]2CC[C@]2(C)[C@@H](O)CC[C@@H]12", "growth inhibition": "-25% (inactive)"}
{"Compound": "CC1=C/C(=C\\C=C2/N(C)c3c(C)cccc3C2(C)C)C(=O)c2ncccc21", "growth inhibition": "28% (inactive)"}
{"Compound": "c1ccc(SSc2ccccc2)cc1", "growth inhibition": "-38% (inactive)"}
{"Compound": "c1ccc(Nc2nnc3nc(-c4ccccc4)c(-c4ccccc4)nn23)cc1", "growth inhibition": "12% (inactive)"}
{"Compound": "CCN(CC)CCCNc1ccc([N+](=O)[O-])c2nc3ccc(OC)cc3c(N)c12", "growth inhibition": "-20% (inactive)"}
{"Compound": "C=CC1(c2ccc(-c3ccccc3)cc2)OCCO1", "growth inhibition": "2% (inactive)"}
{"Compound": "C=C(C)C(CC=C(C)C)Cc1c(O)cc(OC)c2c1OC(c1ccc(O)cc1O)C(O)C2=O (stereo unspecified)", "growth inhibition": "27% (inactive)"}
{"Compound": "C/C=C\\C(/C=C/C)(C(=O)OCCN(C)C)C(/C=C\\C)(/C=C/C)C(=O)OCCN(C)C (stereo unspecified)", "growth inhibition": "2% (inactive)"}
{"Compound": "S=c1c2ccccc2[nH]c2ccccc12", "growth inhibition": "-6% (inactive)"}
{"Compound": "Cc1ccc(C(OS(=O)(=O)c2ccc(C)cc2)C(F)(F)F)cc1 (stereo unspecified)", "growth inhibition": "-11% (inactive)"}
{"Compound": "CC1([N+](=O)[O-])C(=O)C2(N3CCOCC3)CCCC2C1c1ccccc1 (stereo unspecified)", "growth inhibition": "-7% (inactive)"}

---

Assay: NCI Yeast Anticancer Drug Screen. Data for the rad50 strain (AID 155);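 note: 0% = growth of vehicle-only cultures of the same strain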
Conditions: S. cerevisiae rad50 strain growth inhibition; at 5.0 µM (retest, dose inferred, filed as 0.5); stronger effect = higher value
The panel holds about 79,000 compounds, 15% with a hit somewhere; the sample as a whole holds those more often.
# reported growth inhibition; entries follow

{"Compound": "O=C1C=C(c2ccccc2)OC1(Nc1ccccc1)c1ccccc1 (stereo not drawn)", "Readout Unit": "%", "growth inhibition": 4}
{"Compound": "N#C/C(=C\\NC(=S)Nc1cc(Cl)ccc1Cl)c1nc2ccccc2s1", "Readout Unit": "%", "growth inhibition": 21}
{"Compound": "C=C1CC2(CCOc3ccccc32)OC1=O (stereo not drawn)", "Readout Unit": "%", "growth inhibition": 6}
{"Compound": "Cc1occc1C(=S)Nc1ccc(Cl)c(C(=O)OCC(F)(F)F)c1", "Readout Unit": "%", "growth inhibition": 23}
{"Compound": "CC/C=C(\\C)CC(C)O (stereo not drawn)", "Readout Unit": "%", "growth inhibition": -3}
{"Compound": "O=[N+]([O-])c1ccccc1C(c1ccc2ccccc2c1O)N1CCOCC1 (stereo not drawn)", "Readout Unit": "%", "growth inhibition": 99}
{"Compound": "Oc1ccc(-c2nnc(-c3ccccc3)nn2)cc1", "Readout Unit": "%", "growth inhibition": -154}
{"Compound": "CCN(CC)C(=O)N1CCN(c2cccc(Cl)c2)CC1", "Readout Unit": "%", "growth inhibition": 4}
{"Compound": "CCN(CC)CCCOC(=O)C(c1ccccc1)C1CCCCC1 (stereo not drawn)", "Readout Unit": "%", "growth inhibition": 4}
{"Compound": "COc1ccccc1NC(=S)N/N=C(/C)c1ccccn1", "Readout Unit": "%", "growth inhibition": 22}
{"Compound": "O/N=C(/CCc1ccccc1Cl)c1ccccc1", "Readout Unit": "%", "growth inhibition": 3}
{"Compound": "CCN(CC)C(=O)CCCCC(=O)OC(C)C", "Readout Unit": "%", "growth inhibition": 0}
{"Compound": "CC(=O)NC1CCCCC1c1ccc(C2CCCCC2NC(C)=O)cc1 (stereo not drawn)", "Readout Unit": "%", "growth inhibition": -8}
{"Compound": "O=C(O)c1c(Cl)c(Cl)c(Cl)c(Cl)c1-c1c2ccc(=O)cc-2oc2cc(O)ccc12", "Readout Unit": "%", "growth inhibition": 54}
{"Compound": "Cc1cccc(C)c1O", "Readout Unit": "%", "growth inhibition": 17}
{"Compound": "CCCCOC(=O)c1ccc(S(=O)(=O)c2ccc(C(=O)OCCCC)cc2)cc1", "Readout Unit": "%", "growth inhibition": 3}
{"Compound": "COc1ccc(/C=C2/C(=O)NC3SC=C(c4cccc([N+](=O)[O-])c4)N23)cc1 (stereo not drawn)", "Readout Unit": "%", "growth inhibition": 8}
{"Compound": "OCC1CC[N-]CC1.OCC1CC[N-]CC1.[Cl][Pt+2]([Cl])([Cl])[Cl]", "Readout Unit": "%", "growth inhibition": 24}
{"Compound": "O=c1c2c(F)c(F)c(F)c(F)c2sc2nccn12", "Readout Unit": "%", "growth inhibition": 15}
{"Compound": "CC[C@H]1CN2CCc3cc(OC)c(OC)cc3[C@@H]2C[C@@H]1C[C@H]1NCCc2cc(OC)c(OC)cc21", "Readout Unit": "%", "growth inhibition": 0}
{"Compound": "O=C(CCl)Nc1cc(Cl)ccc1Cl", "Readout Unit": "%", "growth inhibition": 2}
{"Compound": "CCCCN(CCCC)CC(O)c1ccc2cc(Cl)c3ccccc3c2c1 (stereo not drawn)", "Readout Unit": "%", "growth inhibition": 53}
{"Compound": "COc1ccc(CC/C(=N/O)c2ccccc2)cc1", "Readout Unit": "%", "growth inhibition": 0}
{"Compound": "O=S(=O)(SCc1ccccc1)C(c1ccccc1)c1ccccc1", "Readout Unit": "%", "growth inhibition": 10}
{"Compound": "CN(C)CC(CN(C)C)C(=O)C1CCCCC1", "Readout Unit": "%", "growth inhibition": 25}
{"Compound": "Cc1cc(Cl)ccc1NC(=O)CC1SC(=NC(=O)c2ccccc2Cl)NC1=O (stereo not drawn)", "Readout Unit": "%", "growth inhibition": 98}
{"Compound": "CCC[CH2][Sn]([CH2]CCC)([O]C(=O)C(OC)c1ccccc1)[O]C(=O)C(OC)c1ccccc1 (stereo not drawn)", "Readout Unit": "%", "growth inhibition": 44}
{"Compound": "O=C1C=C(Cl)C(=O)C(Cl)=C1Cl", "Readout Unit": "%", "growth inhibition": -14}
{"Compound": "Cc1ccc2c(c1)[n+]([O-])c(N)n[n+]2[O-]", "Readout Unit": "%", "growth inhibition": 21}
{"Compound": "C[N+](C)([O-])CCC=C1c2ccccc2CCc2ccccc21", "Readout Unit": "%", "growth inhibition": 10}
{"Compound": "CN(C)CC[N+](C)(C)Cc1ccc(C[N+](C)(C)CC[N+](C)(C)Cc2ccc(CCl)cc2)cc1", "Readout Unit": "%", "growth inhibition": 0}
{"Compound": "O=C(Oc1ccccc1)c1ccc2ccccc2c1O", "Readout Unit": "%", "growth inhibition": -4}
{"Compound": "CCCCCCCCCCCCNCC#N", "Readout Unit": "%", "growth inhibition": 8}
{"Compound": "Cc1ccc(-c2c(C#N)c(S)n(NS(=O)(=O)c3ccccc3)c(=O)c2C#N)cc1", "Readout Unit": "%", "growth inhibition": 28}
{"Compound": "CC(C)CCOC(=O)c1ccc(O)cc1.[Zn+2]", "Readout Unit": "%", "growth inhibition": 5}
{"Compound": "CCN(CC)CCCNc1cccc2ccc(OC)nc12", "Readout Unit": "%", "growth inhibition": 1}
{"Compound": "O=C(/C=C/c1cc(O)c(O)cc1O)OCCc1ccccc1", "Readout Unit": "%", "growth inhibition": 17}
{"Compound": "O=C1c2ccccc2S(=O)(=O)CC1Br (stereo not drawn)", "Readout Unit": "%", "growth inhibition": -7}
{"Compound": "COc1ccc(NC(=O)C(Cc2ccccc2)NC(C)=O)cc1 (stereo not drawn)", "Readout Unit": "%", "growth inhibition": 9}
{"Compound": "CC(O)CCc1nc2ccccc2[nH]1 (stereo not drawn)", "Readout Unit": "%", "growth inhibition": 3}
{"Compound": "Nc1c(NCc2ccccc2)ccc2ncccc12", "Readout Unit": "%", "growth inhibition": -10}
{"Compound": "CCCN(CCC)CC(O)c1ccc2ccc3ccc(Cl)cc3c2c1 (stereo not drawn)", "Readout Unit": "%", "growth inhibition": 20}
{"Compound": "O=C(CSc1nnc(Cc2ccccc2)o1)Nc1ccc(Cl)cc1", "Readout Unit": "%", "growth inhibition": -20}
{"Compound": "CCN(CC)CCC(=O)/C=C/c1ccc(C)cc1", "Readout Unit": "%", "growth inhibition": 4}
{"Compound": "N#CC(CCCCl)(c1ccccc1)c1ccccc1", "Readout Unit": "%", "growth inhibition": 2}
{"Compound": "CC(NNC(=S)N1CCCC1)c1cc2ccccc2cn1 (stereo not drawn)", "Readout Unit": "%", "growth inhibition": 30}
{"Compound": "Cc1cc(-c2ccc(N=Nc3cc(S(=O)(=O)O)c4ccccc4c3N)c(C)c2)ccc1N=Nc1cc(S(=O)(=O)O)c2ccccc2c1N", "Readout Unit": "%", "growth inhibition": 19}
{"Compound": "O=C(O)C1C(=O)OC2CCCCC21 (stereo not drawn)", "Readout Unit": "%", "growth inhibition": 0}

These data points were gathered from PubChem BioAssay (NCI).
